- testedTarget: β2 adrenergic receptor (Homo sapiens, UniProt P07550)
- Sequence (P07550 whole entry): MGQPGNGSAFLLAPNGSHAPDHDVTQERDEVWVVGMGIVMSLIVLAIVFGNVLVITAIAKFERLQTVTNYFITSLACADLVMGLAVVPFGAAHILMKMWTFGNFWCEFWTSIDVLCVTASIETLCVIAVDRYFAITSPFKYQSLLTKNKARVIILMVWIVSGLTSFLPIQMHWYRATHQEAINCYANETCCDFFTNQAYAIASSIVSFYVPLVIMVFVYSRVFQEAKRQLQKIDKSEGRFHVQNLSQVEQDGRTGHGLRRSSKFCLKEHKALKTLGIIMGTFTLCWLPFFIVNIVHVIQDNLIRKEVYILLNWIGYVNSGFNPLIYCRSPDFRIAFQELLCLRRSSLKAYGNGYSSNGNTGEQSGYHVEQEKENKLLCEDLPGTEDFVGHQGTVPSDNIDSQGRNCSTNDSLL
- experimentDescription: cAMP Gs dynamic HTRF assay, β2 expressing CHO cells
pEC50: −log10 of the molar value.
assayEndpoint: pEC50

{"smilesInput": "COc1ccc(C[C@@H](C)NC[C@H](O)c2ccc(C3CC3)nc2C)cc1", "assayEndpoint": "pEC50", "recordedMeasurement": "> 8.00"}

====

- experimentDescription: Microsomal stability (dog)
- Format: in vitro ADME
- testParameters: dog liver microsomes 0.5 mg/mL; read-out: Microsomal stability (in vitro CLint), Dog
Overview of reported microsomal CLint across a group of compounds:
assayEndpoint: microsomal CLint (µL/min/mg)

{"smilesInput": "CC(C)(C)NC[C@H](O)c1cccc(C#N)n1", "assayEndpoint": "microsomal CLint", "recordedMeasurement": 4.32}
{"smilesInput": "CC(C)(C)NC[C@H](O)c1cccc(C(F)(F)F)n1", "assayEndpoint": "microsomal CLint", "recordedMeasurement": 7.99}
